The origin of these recorded values is patent US20040082664A1.

System: IL-2 promoter
Assay: IL-2 promoter luciferase reporter assay in anti-CD3 activated Jurkat cells
Type: cell-based
Conditions: Homo sapiens, TCR-induced (anti-CD3) IL-2 promoter luciferase, 2 h pre-incubation
readout_kind: IC50 (µM)
The reply should contain only the number, in µM.

(Q) I am curious: what IC50 value has been reported for CC(C)(C)OC(=O)[C@H](Cc1ccc(O)c(O)c1)NC(=O)/C=C/c1ccc(O)c(O)c1 ?
(A) 7.2

(Q) Cool, now COC(=O)[C@H](Cc1ccc(O)c(O)c1)NC(=O)/C=C/c1ccc(O)c(O)c1
(A) 10.9

(Q) What do you have for CN(C(=O)/C=C/c1ccc(O)c(O)c1)[C@H](Cc1ccc(O)c(O)c1)C(N)=O ?
(A) 9.7

(Q) Same thing, different compound: CC(C)OC(=O)[C@H](Cc1ccc(O)c(O)c1)NC(=O)/C=C/c1ccc(O)c(O)c1
(A) 9.5

(Q) Thanks! And CCOC(=O)[C@@H](Cc1ccc(O)c(O)c1)N(C)C(=O)/C=C/c1ccc(O)c(O)c1 ?
(A) 8.9

(Q) Please answer likewise for COC(=O)[C@@H](Cc1ccc(O)cc1)NC(=O)/C=C/c1ccc(O)c(O)c1
(A) 7.8

(Q) Please give the result for CCCOC(=O)[C@@H](Cc1ccc(O)c(O)c1)NC(=O)/C=C/c1ccc(O)c(O)c1 too.
(A) 7.8

(Q) Now try CC(C)OC(=O)[C@@H](Cc1ccc(O)c(O)c1)NC(=S)/C=C/c1ccc(O)c(O)c1 .
(A) 8.9

###

Tested on: IL-2 promoter
Test: IL-2 promoter luciferase reporter assay in anti-CD3 activated Jurkat cells
Type: cell-based
Conditions: Homo sapiens, TCR-induced (anti-CD3) IL-2 promoter luciferase, 2 h pre-incubation
readout_kind: pIC50
Answer as the number alone; pIC50 is minus log10 of concentration in mol/L.

(Q) Given O=C(O)[C@@H](Cc1ccc(O)c(O)c1)NC(=S)/C=C/c1ccc(O)c(O)c1 , state its recorded pIC50.
(A) 5.17

(Q) # repeat for CC(C)(C)OC(=O)[C@@H](Cc1ccc(O)c(O)c1)NC(=S)/C=C/c1ccc(O)c(O)c1
(A) 4.67

(Q) Quick one: CC(C)OC(=O)[C@@H](Cc1ccc(O)c(O)c1)NC(=O)/C=C/c1ccc(O)c(O)c1
(A) 5.19

(Q) Then what about the molecule CCOC(=O)[C@H](Cc1ccc(O)c(O)c1)NC(=O)/C=C/c1ccc(O)c(O)c1 ?
(A) 5.36

(Q) Try NC(=O)[C@@H](Cc1ccc(O)c(O)c1)OC(=O)/C=C/c1ccc(O)c(O)c1 next.
(A) 5.28

(Q) // same read-out, input: COC(=O)[C@@H](Cc1ccc(O)c(O)c1)OC(=O)/C=C/c1ccc(O)c(O)c1
(A) 5.35
